Target: NADPH oxidase 4 (Homo sapiens)
Test: NOX4-dependent H2O2 signal modulators, primary screen, NOX inhibitor project, cell-based, HEK293-NOX4, tetracycline-induced, Amplex Red fluorescence (AID 1160)
Conditions: 45 min, higher = more signal, called active from +8 up or from −8 down
Each entry below lists one item and its recorded z-score value.
endpoint: z-score

[[record]]
molecule = "COCC(=C=CC[C@H](O)c1cccc(OCCO)c1)C[C@H](O)c1ccccn1"
endpoint = "z-score"
observed_measurement = 0.154

[[record]]
molecule = "CN1C(=O)C2C=CC(C(O)c3c(F)cccc3Cl)N(Nc3ccccc3)C2C1=O (stereo not given)"
endpoint = "z-score"
observed_measurement = -4.96

[[record]]
molecule = "CO[C@H]1O[C@H](CO)[C@@H](OC(=O)Nc2ccccc2-c2ccccc2)[C@H](OC(=O)Nc2ccc3c(c2)OCO3)[C@@H]1OC(=O)Nc1ccc2c(c1)OCO2"
endpoint = "z-score"
observed_measurement = -0.722

[[record]]
molecule = "O=C(CS)NCCCCCCNC(=O)[C@@H]1C[C@@H]2C(=O)N3CCC[C@H]3C(=O)N2[C@@H]1c1cccc(OCCO)c1"
endpoint = "z-score"
observed_measurement = 0.87

[[record]]
molecule = "C=CC[C@H](OC(=O)Nc1ccc(OC)cc1)c1ccc(O)c2ccccc12"
endpoint = "z-score"
observed_measurement = -1.58

[[record]]
molecule = "CCOC(=O)C[C@H]1[C@H](OC(=O)c2ccccc2-c2ccccc2)[C@@H](NC(=O)CC(C)C)c2cc(OCCCO)ccc2N1C(=O)c1ccc2ccccc2n1"
endpoint = "z-score"
observed_measurement = 1.15

[[record]]
molecule = "CCOC(=O)C[C@H]1[C@H](OC(=O)Cc2ccc3c(c2)OCO3)[C@@H](NC(=O)Cc2ccc(OC)cc2)c2cc(OCCCO)ccc2N1C(=O)c1ccccc1"
endpoint = "z-score"
observed_measurement = 0.689

[[record]]
molecule = "CC(C)C(=C=CC[C@H](O)c1ccc(OCCO)cc1)C[C@H](O)c1cc(Cl)cc(Cl)c1O"
endpoint = "z-score"
observed_measurement = -0.473

[[record]]
molecule = "O=C1O[C@@H](c2ccccc2)[C@@H](c2ccccc2)N2[C@@H](c3ccccc3OCCO)[C@]3(C(=O)Nc4ccc(C#CC5=CCCCC5)cc43)[C@@H](C(=O)NC[C@H](O)c3ccccc3)[C@H]12"
endpoint = "z-score"
observed_measurement = 1.1

[[record]]
molecule = "[N-]=[N+]=Nc1ccccc1C[C@]1(C(=O)NCc2ccccc2)N=C(c2ccc(OCCCO)cc2)O[C@H]1c1ccccc1"
endpoint = "z-score"
observed_measurement = 1.45

[[record]]
molecule = "COC(=O)[C@@]1(Cc2ccc(F)cc2)[C@H]2c3cc(C(=O)N4CCCC4)n(CCc4c[nH]c5ccc(OC)cc45)c3C[C@H]2CN1C(=O)c1ccccc1"
endpoint = "z-score"
observed_measurement = 0.118

[[record]]
molecule = "COc1ccc([Si](C)(C)[C@@H]2[C@@H](CCO)O[C@]3(C(=O)N(Cc4cccc(N5C(=O)c6cccc7cccc5c67)c4)c4ccccc43)[C@H]2C)cc1"
endpoint = "z-score"
observed_measurement = 0.86

[[record]]
molecule = "C=C(/C(=C/C[C@@H](OC(=O)c1ccncc1)c1ccccc1OCCO)c1cc(C(=O)OC)ccc1OC)C(C)C"
endpoint = "z-score"
observed_measurement = -1.04

[[record]]
molecule = "CC(=O)n1cc(C(O)C2C=CC3C(=O)N(c4ccccc4)C(=O)C3N2Nc2ccccc2)c2ccccc21 (stereo not given)"
endpoint = "z-score"
observed_measurement = -4.86

[[record]]
molecule = "C=C1C2CC3C(=C4C(CO[C@@H]4[C@H]4CCCN4S(=O)(=O)c4ccccc4[N+](=O)[O-])C4C(=O)N(C)C(=O)C34)CC2C(=O)N1C (stereo not given in full)"
endpoint = "z-score"
observed_measurement = 0.569

